B1: CPEB3 Ribozyme (parent)
chain: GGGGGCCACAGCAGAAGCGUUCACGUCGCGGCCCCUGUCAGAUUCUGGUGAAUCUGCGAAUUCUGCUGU

Variants of: B1
Experiment: self-cleavage, relative activity (ratio to wild type); higher = more cleavage; co-transcriptional
The following variants are listed with their measured self-cleavage values.
Write no unit; give the number alone.

# Variant name, Recorded result
measured = [
    ("C7G U69C", 0.861),
    ("G3U C9G", 0.446),
    ("C39G U44A", 0.772),
    ("C39U G50C", 0.744),
    ("U20A A42C", 0.0988),
]

What value of self-cleavage has been reported for the following variant? A13G C34U 1.02

Another: G11A A52U 0.837

Another: G11U C39G 0.536

Another: G1A A23U 0.184

Another: C18A G65A 0.148

Another: G25U A52U 0.199
